Molecular target: human δ-opioid receptor (human, UniProt P41143 1-372)
Sequence (P41143 whole entry, stated change not applied): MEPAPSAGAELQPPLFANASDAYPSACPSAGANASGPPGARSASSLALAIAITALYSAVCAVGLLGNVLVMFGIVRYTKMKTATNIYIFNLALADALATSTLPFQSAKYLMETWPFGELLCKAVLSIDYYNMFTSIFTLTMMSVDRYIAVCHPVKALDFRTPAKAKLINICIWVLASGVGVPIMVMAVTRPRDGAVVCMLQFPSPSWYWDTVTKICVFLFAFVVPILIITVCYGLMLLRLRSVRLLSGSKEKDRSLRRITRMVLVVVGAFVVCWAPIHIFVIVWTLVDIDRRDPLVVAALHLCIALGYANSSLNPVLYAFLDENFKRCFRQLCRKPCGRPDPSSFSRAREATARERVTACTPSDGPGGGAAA
Test: cell-based or functional assay
Non-standard residues stand in square brackets, D forms with d. No end group written: not given here. *: point of attachment. NH(3,5-(CF3)2-benzyl) = FC(F)(F)c1cc(CN*)cc(C(F)(F)F)c1; βGlc = OC[C@H]1O[C@@H](*)[C@H](O)[C@@H](O)[C@@H]1O; Nle = CCCC[C@H](N)C(=O)O
REPORTED ENDPOINT: [35S]GTPγS binding, HN9.10 membranes expressing hDOR: Emax (%)
Give your result in % as a bare value.

Worked cases, [35S]GTPγS binding, HN9.10 membranes expressing hDOR: Emax given:
Y[dA]GF[Nle]PLS(βGlc)W-{NH(3,5-(CF3)2-benzyl)} [Tyr-D-Ala-Gly-Phe-Nle-Pro-Leu-Ser(Glc)-Trp-NH-3’,5’-Bzl(CF3)2] : 49
Y[dA]GF[Nle]S(βGlc)LW-{NH(3,5-(CF3)2-benzyl)} [Tyr-D-Ala-Gly-Phe-Nle-Ser(Glc)-Leu-Trp-NH-3’,5’-Bzl(CF3)2] : 130
YAGFXPLW (D-Ala at 2; norleucine (Nle) at 5 (written X); C-terminal 3’,5’-bis(trifluoromethyl)benzyl amide (Trp-NH-3’,5’-Bzl(CF3)2)) [Tyr-D-Ala-Gly-Phe-Nle-Pro-Leu-Trp-NH-3’,5’-Bzl(CF3)2] : 120

[35S]GTPγS binding, HN9.10 membranes expressing hDOR: Emax lookup needed for Y[dA]GF[Nle]PS(βGlc)W-{NH(3,5-(CF3)2-benzyl)} [Tyr-D-Ala-Gly-Phe-Nle-Pro-Ser(Glc)-Trp-NH-3’,5’-Bzl(CF3)2] , thanks.
64

Just for reference, paper PMC3521585 is where these values come from.
